meta.source: patent US20200247894A1

// reported Max Inhibition (%); IL-2 30 pM; NK92/hIL7R/STAT3-luc for each item listed
Tested System: T1, human IL2Rγ (endogenously expressed on cells) (human, UniProt P31785 23-369)
T1 sequence (looked up): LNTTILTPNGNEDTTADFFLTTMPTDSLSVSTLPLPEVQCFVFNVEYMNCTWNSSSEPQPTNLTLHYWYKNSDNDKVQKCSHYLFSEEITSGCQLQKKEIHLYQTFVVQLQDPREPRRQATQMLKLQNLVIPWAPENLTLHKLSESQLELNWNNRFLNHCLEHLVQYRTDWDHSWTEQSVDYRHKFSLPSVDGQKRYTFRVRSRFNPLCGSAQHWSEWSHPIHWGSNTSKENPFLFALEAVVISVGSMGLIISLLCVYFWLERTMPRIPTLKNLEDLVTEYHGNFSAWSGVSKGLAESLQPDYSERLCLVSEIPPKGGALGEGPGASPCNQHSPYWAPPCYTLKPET
Assay Info: cell-based or functional assay
Answer with a number only, understood to be in %.

Solved entries (count: 2):
* H4H12890P (antibody, human IgG4 S228P, kappa, V domains shown, human IgG4) VH: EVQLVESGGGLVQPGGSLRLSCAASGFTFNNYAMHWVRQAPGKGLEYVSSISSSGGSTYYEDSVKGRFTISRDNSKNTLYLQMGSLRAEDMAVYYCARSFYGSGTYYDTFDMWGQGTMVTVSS VL: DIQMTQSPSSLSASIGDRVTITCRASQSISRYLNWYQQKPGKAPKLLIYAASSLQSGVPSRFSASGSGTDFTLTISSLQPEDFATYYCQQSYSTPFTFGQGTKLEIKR | 15
* H4H12857P (antibody, human IgG4 S228P, kappa, V domains shown, human IgG4; also called REGN9432) VH: EVQLVESGGGVVRPGGSLRLSCAASGFTFDDFDMSWVRQGPGKGLEWVSGINWHGSSTGYADSVKGRFTISRDNAKNSLYLQMSSLRAEDTALYHCVRGGTIVGATTPLDYWGQGTLVTVSS VL: DIQMTQSPSSLSASVGDRVTMTCRASRTISSYLSWYQQKSGKVPNLLIFGASSLQSGVPSRFSASGSGTDFTLIISSLQPEDFATYYCQQSYSSPLTFGGGTKVEIKR | 44

Please find the next binder below.
Given the entry H4H12889P (antibody, human IgG4 S228P, kappa, V domains shown, human IgG4; also called REGN7257) VH: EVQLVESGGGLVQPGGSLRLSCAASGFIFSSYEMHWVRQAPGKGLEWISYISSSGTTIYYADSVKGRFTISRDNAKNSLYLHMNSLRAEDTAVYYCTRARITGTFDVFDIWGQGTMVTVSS VL: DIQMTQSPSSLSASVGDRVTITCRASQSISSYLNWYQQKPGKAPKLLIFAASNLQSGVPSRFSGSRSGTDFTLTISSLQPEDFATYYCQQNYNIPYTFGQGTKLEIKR , report its measured Max Inhibition (%); IL-2 30 pM; NK92/hIL7R/STAT3-luc. 81
